- Assay System: Nuclear receptor subfamily 1 group I member 2 (Homo sapiens)
- Procedure Details: NVS_NR_hPXR: NovaScreen (NVS) Nuclear Receptor Binding Assay for human Pregnane X Receptor (PXR) (AID 2283365);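 also: a drop in FRET signal versus DMSO baseline means the compound binds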
Results filed as inconclusive are left out. Activity calls are given as the source filed them. The calls were made as follows: active = hit-call score of the fitted dose curve at least 0.9, where 1 is the maximum; inconclusive = response in the unintended direction; inactive = score below 0.9.
Field 'call' accepts active, inactive

### Prompt GET /call?item= ClC1C(Cl)C(Cl)C(Cl)C(Cl)C1Cl (centres undefined) returns the recorded outcome of this test.
### Response inactive

### Prompt GET /call?item= CC(C)(C)C(O)/C(=C\c1ccc(Cl)cc1Cl)n1cncn1 (centres undefined) returns the recorded outcome of this test.
### Response active

### Prompt GET /call?item= O=S(=O)(O)C(F)(F)C(F)(F)C(F)(F)C(F)(F)C(F)(F)C(F)(F)C(F)(F)C(F)(F)F returns the recorded outcome of this test.
### Response active

### Prompt GET /call?item= CC(C)(C)C(O)C(Oc1ccc(Cl)cc1)n1cncn1 (centres undefined) returns the recorded outcome of this test.
### Response active
